molecular target: Hck (UniProt P08631); test: phosphorylation enrichment, bacterial display (enrichment ratio); higher = better substrate or ligand; peptides without Tyr show the background;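 also: 11-residue human phosphosite peptides and single-mutation variants displayed on the E. coli surface, counted by deep sequencing, each peptide's frequency after selection divided by its frequency in the unselected input library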;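 also: frequency after pTyr selection over input frequency; kinase dosed for 20-30% of maximal phosphorylation in three min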
Sequence (P08631 whole entry, looked up): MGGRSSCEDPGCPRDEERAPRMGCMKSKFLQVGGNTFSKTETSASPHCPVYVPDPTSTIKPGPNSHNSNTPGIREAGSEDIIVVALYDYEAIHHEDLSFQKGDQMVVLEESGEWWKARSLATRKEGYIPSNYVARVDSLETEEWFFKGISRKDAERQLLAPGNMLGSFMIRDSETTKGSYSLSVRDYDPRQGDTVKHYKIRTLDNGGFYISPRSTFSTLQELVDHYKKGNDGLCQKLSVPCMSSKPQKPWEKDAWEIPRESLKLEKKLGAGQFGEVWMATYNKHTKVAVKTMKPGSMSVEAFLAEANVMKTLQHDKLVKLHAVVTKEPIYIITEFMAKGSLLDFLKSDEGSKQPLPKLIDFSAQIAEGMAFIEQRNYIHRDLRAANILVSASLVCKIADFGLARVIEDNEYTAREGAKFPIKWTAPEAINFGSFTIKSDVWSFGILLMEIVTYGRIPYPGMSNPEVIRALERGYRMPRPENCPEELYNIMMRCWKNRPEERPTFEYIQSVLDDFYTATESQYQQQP
measured-metric: phosphorylation enrichment
Simply state the number, no unit and no words.

sequence-data	measured-value
QDDFSYPSRQM [LDLR_Y847_G844D_YF]	0.575
IKKFKYGIEEH [GJA1_Y137]	0.402
GAMGHYVLAER [HFE_Y342]	0.44
ASLEAYCKHKF [RXRA_Y403_YF]	0.519
IEKLPYIDKWF [CPS1_Y872_T871P]	0.456

Name the reported phosphorylation enrichment value associated with the sequence NYCPGYNNFYN [USH2A_Y467_R464C]
0.613

Name the reported phosphorylation enrichment value associated with the sequence HEGKIYEYNQV [ZNF665_Y162]
2.04

Name the reported phosphorylation enrichment value associated with the sequence EKEKKYMLPLD [DNM2_Y563]
0.591

Name the reported phosphorylation enrichment value associated with the sequence VDEERYDIEAK [TNNI3_Y112]
0.724

Name the reported phosphorylation enrichment value associated with the sequence CTTIHYNYMCD [TP53_Y234_N239D]
0.469

Name the reported phosphorylation enrichment value associated with the sequence TVINKYQGKLF [HGD_Y249]
0.447

Name the reported phosphorylation enrichment value associated with the sequence SLFPGYNFRFA [P2RX7_Y291_YF]
0.476

Name the reported phosphorylation enrichment value associated with the sequence SLYPGYNFRYA [P2RX7_Y291]
0.529

Name the reported phosphorylation enrichment value associated with the sequence EWCSPYGLTPR [GRIN3B_Y601_R598C]
1.04
